Hello, the source for this data is ChEMBL document CHEMBL3045273, in case you need it.

- System: Pseudomonas aeruginosa
- Assay: Antibacterial activity against Pseudomonas aeruginosa ATCC 27853 assessed as growth inhibition at 300 ug/ml after 24 hr by Kirby-Bauer disk diffusion method
- Type: functional
- Run conditions: ATCC 27853, 24 h, read-out: DIZ
Reported metric: zone of inhibition at 300 µg/mL (mm)
Write down the numeric answer in mm and omit the unit.

Below, 3 molecules whose answers are already recorded.
Molecule: Cc1ccc(NC(=O)NCCn2c(-c3ccccc3)nc3ccc([N+](=O)[O-])cc3c2=O)cc1
zone of inhibition at 300 µg/mL / mm: 17
--
Molecule: O=C(NCCn1c(-c2ccccc2)nc2ccc([N+](=O)[O-])cc2c1=O)Nc1cc(C(F)(F)F)cc(C(F)(F)F)c1
zone of inhibition at 300 µg/mL / mm: 19
--
Molecule: O=C(NCCn1c(-c2ccccc2)nc2ccc([N+](=O)[O-])cc2c1=O)Nc1ccc(C(F)(F)F)cc1
zone of inhibition at 300 µg/mL / mm: 18

Now, please, on to the next molecule.
### Prompt Supply recorded zone of inhibition at 300 µg/mL for Cc1ccccc1NC(=O)NCCn1c(-c2ccccc2)nc2ccc([N+](=O)[O-])cc2c1=O here.
### Response 18

----------
- System: Escherichia coli
- Assay: Antibacterial activity against Escherichia coli ATCC 25922 assessed as growth inhibition after 24 hr by serial broth dilution method
- Type: functional
- Run conditions: ATCC 25922, 24 h
Reported metric: MIC (µg/mL)
Write down the numeric answer in µg/mL and omit the unit.

Compound: O=C(NCCn1c(-c2ccccc2)nc2ccc([N+](=O)[O-])cc2c1=O)NC1CCCCC1
Target under test: Escherichia coli
Number: 70

### Prompt Supply recorded MIC for O=C(NCCn1c(-c2ccccc2)nc2ccc([N+](=O)[O-])cc2c1=O)Nc1cc(C(F)(F)F)ccc1Cl here.
### Response 70

### Prompt Supply recorded MIC for O=C(NCCn1c(-c2ccccc2)nc2ccc([N+](=O)[O-])cc2c1=O)Nc1ccccc1Cl here.
### Response 70

### Prompt Supply recorded MIC for O=C(NCCn1c(-c2ccccc2)nc2ccc([N+](=O)[O-])cc2c1=O)Nc1ccc(C(F)(F)F)cc1 here.
### Response 70

### Prompt Supply recorded MIC for Cc1ccccc1NC(=O)NCCn1c(-c2ccccc2)nc2ccc([N+](=O)[O-])cc2c1=O here.
### Response 40

### Prompt Supply recorded MIC for O=C(NCCn1c(-c2ccccc2)nc2ccc([N+](=O)[O-])cc2c1=O)Nc1ccccc1 here.
### Response 70

### Prompt Supply recorded MIC for CC1CCC(NC(=O)NCCn2c(-c3ccccc3)nc3ccc([N+](=O)[O-])cc3c2=O)CC1 (stereo not drawn) here.
### Response 40

### Prompt Supply recorded MIC for Cc1ccc(NC(=O)NCCn2c(-c3ccccc3)nc3ccc([N+](=O)[O-])cc3c2=O)cc1 here.
### Response 40

----------
- Test system: Pseudomonas aeruginosa
- Assay: Antibacterial activity against Pseudomonas aeruginosa ATCC 27853 assessed as growth inhibition at 300 ug/ml after 24 hr by Kirby-Bauer disk diffusion method
- Assay type: functional
- Run conditions: ATCC 27853, 24 h, read-out: DIZ
This section presents compounds with their documented zone of inhibition at 300 µg/mL values.
Write down the numeric answer in mm and omit the unit.

Below, 3 compounds whose answers are already recorded.
Compound: O=C(NCCn1c(-c2ccccc2)nc2ccc([N+](=O)[O-])cc2c1=O)Nc1ccccc1
Reported metric: zone of inhibition at 300 µg/mL
Quantity unit: mm
Number: 14

Compound: CSc1ccc(NC(=O)NCCn2c(-c3ccccc3)nc3ccc([N+](=O)[O-])cc3c2=O)cc1
Reported metric: zone of inhibition at 300 µg/mL
Quantity unit: mm
Number: 19

Compound: O=C(NCCn1c(-c2ccccc2)nc2ccc([N+](=O)[O-])cc2c1=O)Nc1cc(C(F)(F)F)ccc1Cl
Reported metric: zone of inhibition at 300 µg/mL
Quantity unit: mm
Number: 19

### Prompt Supply recorded zone of inhibition at 300 µg/mL for O=C(NCCn1c(-c2ccccc2)nc2ccc([N+](=O)[O-])cc2c1=O)Nc1ccc(Cl)cc1 here.
### Response 16

### Prompt Supply recorded zone of inhibition at 300 µg/mL for CC1CCC(NC(=O)NCCn2c(-c3ccccc3)nc3ccc([N+](=O)[O-])cc3c2=O)CC1 (configuration not stated) here.
### Response 21

### Prompt Supply recorded zone of inhibition at 300 µg/mL for O=C(NCCn1c(-c2ccccc2)nc2ccc([N+](=O)[O-])cc2c1=O)Nc1ccccc1Cl here.
### Response 19

### Prompt Supply recorded zone of inhibition at 300 µg/mL for O=C(NCCn1c(-c2ccccc2)nc2ccc([N+](=O)[O-])cc2c1=O)NC1CCCCC1 here.
### Response 17
